Values from patent US8026218

target: human δ opioid receptor (human, UniProt P41143 1-372); assay: cell-based or functional assay
Sequence (P41143 whole entry, stated change not applied): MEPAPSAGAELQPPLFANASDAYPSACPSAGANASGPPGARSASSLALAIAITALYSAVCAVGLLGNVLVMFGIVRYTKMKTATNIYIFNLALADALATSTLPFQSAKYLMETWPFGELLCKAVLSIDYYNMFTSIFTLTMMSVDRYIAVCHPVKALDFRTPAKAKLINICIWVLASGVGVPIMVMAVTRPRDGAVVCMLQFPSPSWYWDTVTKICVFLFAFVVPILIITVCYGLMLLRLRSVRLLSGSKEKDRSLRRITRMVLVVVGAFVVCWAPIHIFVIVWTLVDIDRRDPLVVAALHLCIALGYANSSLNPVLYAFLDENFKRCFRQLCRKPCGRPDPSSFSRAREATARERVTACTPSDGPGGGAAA
Square brackets hold non-standard residues; d marks the D form. Ends that are not written are not given here. * marks the point of attachment. NMeBn(CF3)2 = C-terminal N-methyl bis(trifluoromethyl)benzyl amide; NH(3,5-(CF3)2-benzyl) = FC(F)(F)c1cc(CN*)cc(C(F)(F)F)c1; OBzl(3,5-(CF3)2) = FC(F)(F)c1cc(CO*)cc(C(F)(F)F)c1; OBn(OMe)2 = C-terminal OBn(OMe)2 ester; Dmt = Cc1cc(O)cc(C)c1C[C@H](N)C(=O)O; NMe(benzyl) = CN(Cc1ccccc1)*
parameter: GTP binding hDOR Emax (%)
Dear colleague, please return just the value in %, with no unit written.

binder	unit info	test result
Y[dA]GFMPLW-{NMeBn(CF3)2} [TyrDAlaGlyPheMetProLeuTrpNMeBn(CF3)2 (TY028)]	%	59
Y[dA]GFMPLW-{OBn(OMe)2} [TyrDAlaGlyPheMetProLeuTrpOBn(OMe)2 (TY030)]	%	61

Query block: Name the recorded GTP binding hDOR Emax for [Dmt][dA]GFMPLW-{OBzl(3,5-(CF3)2)} [DmtDAlaGlyPheMetProLeuTrpOBn(CF3)2 (TY033)] .
Result block: 200

Query block: Name the recorded GTP binding hDOR Emax for [Dmt][dA]GFMPLW-{NH(3,5-(CF3)2-benzyl)} [DmtDAlaGlyPheMetProLeuTrpNHBn(CF3)2 (TY032)] .
Result block: 24

Query block: Name the recorded GTP binding hDOR Emax for YAGFMPLW (D-Ala at 2; Met(O) (oxidized methionine) at 5; C-terminal O-3,5-Bn(CF3)2 ester) [TyrDAlaGlyPheMet(O)ProLeuTrpOBn(CF3)2 (TY023)] .
Result block: 52.8

Query block: Name the recorded GTP binding hDOR Emax for Y[dA]GFMALW-{OBzl(3,5-(CF3)2)} [TyrDAlaGlyPheMetAlaLeuTrpOBn(CF3)2 (TY020)] .
Result block: 26.4

Query block: Name the recorded GTP binding hDOR Emax for Y[dA]GFMPLW-{NMe(benzyl)} [TyrDAlaGlyPheMetProLeuTrpNMeBn (TY026)] .
Result block: 93
